B1: TRAF3IP2 (parent)
chain: YGHDYPRAAYQQVIQPALPGQPLP

Variants of: B1
Assay: protein stability index of a GFP-peptide fusion (GPS, HEK-293T) (PSI 1-6); higher = more stable;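 further: lentivirally expressed fusions sorted by FACS into six bins by GFP to DsRed ratio, PSI derived from sequencing read proportions per bin multiplied by bin number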
Conditions: c terminus: a fixed tail appended
Parameter threshold = 2. Response is Criterion met when protein stability index meets or exceeds it, else Criterion not met.

Please check the record "Q15K" and state if its protein stability index is at or above 2.
Criterion not met

Please check the record "A8P" and state if its protein stability index is at or above 2.
Criterion met

Please check the record "L18R" and state if its protein stability index is at or above 2.
Criterion met

Please check the record "G2Q" and state if its protein stability index is at or above 2.
Criterion met

Please check the record "D4N" and state if its protein stability index is at or above 2.
Criterion met

Please check the record "A8H" and state if its protein stability index is at or above 2.
Criterion met

Please check the record "Y1N" and state if its protein stability index is at or above 2.
Criterion met

Please check the record "Q11H" and state if its protein stability index is at or above 2.
Criterion met

Please check the record "L18Q" and state if its protein stability index is at or above 2.
Criterion met

Please check the record "Q11I" and state if its protein stability index is at or above 2.
Criterion met

Please check the record "R7K" and state if its protein stability index is at or above 2.
Criterion met

Please check the record "Y10W" and state if its protein stability index is at or above 2.
Criterion not met

Please check the record "P16M" and state if its protein stability index is at or above 2.
Criterion not met

Please check the record "D4V" and state if its protein stability index is at or above 2.
Criterion met

Please check the record "Y5I" and state if its protein stability index is at or above 2.
Criterion met

Please check the record "L23P" and state if its protein stability index is at or above 2.
Criterion not met

Please check the record "Y1V" and state if its protein stability index is at or above 2.
Criterion met

Please check the record "L23Y" and state if its protein stability index is at or above 2.
Criterion not met

Please check the record "A9G" and state if its protein stability index is at or above 2.
Criterion met

Please check the record "Q11M" and state if its protein stability index is at or above 2.
Criterion not met

Please check the record "D4P" and state if its protein stability index is at or above 2.
Criterion met

Please check the record "I14Q" and state if its protein stability index is at or above 2.
Criterion not met

Please check the record "P16S" and state if its protein stability index is at or above 2.
Criterion not met

Please check the record "Y10R" and state if its protein stability index is at or above 2.
Criterion not met

Please check the record "G20V" and state if its protein stability index is at or above 2.
Criterion not met

Please check the record "H3I" and state if its protein stability index is at or above 2.
Criterion not met

Please check the record "Y1R" and state if its protein stability index is at or above 2.
Criterion met

Please check the record "Y1E" and state if its protein stability index is at or above 2.
Criterion met

Please check the record "Q21C" and state if its protein stability index is at or above 2.
Criterion met

Please check the record "P6Y" and state if its protein stability index is at or above 2.
Criterion met

Please check the record "P6M" and state if its protein stability index is at or above 2.
Criterion not met

Please check the record "A8M" and state if its protein stability index is at or above 2.
Criterion not met

Please check the record "P22H" and state if its protein stability index is at or above 2.
Criterion not met

Please check the record "P19N" and state if its protein stability index is at or above 2.
Criterion met

Please check the record "L18F" and state if its protein stability index is at or above 2.
Criterion met

Please check the record "P19L" and state if its protein stability index is at or above 2.
Criterion met

Please check the record "Y5S" and state if its protein stability index is at or above 2.
Criterion met

Please check the record "Y1A" and state if its protein stability index is at or above 2.
Criterion met

Please check the record "H3G" and state if its protein stability index is at or above 2.
Criterion met

Please check the record "I14K" and state if its protein stability index is at or above 2.
Criterion met

Please check the record "G20K" and state if its protein stability index is at or above 2.
Criterion met

Please check the record "A9L" and state if its protein stability index is at or above 2.
Criterion met

Please check the record "A17Y" and state if its protein stability index is at or above 2.
Criterion not met

Please check the record "P19E" and state if its protein stability index is at or above 2.
Criterion met

Please check the record "R7D" and state if its protein stability index is at or above 2.
Criterion met

Please check the record "Q15T" and state if its protein stability index is at or above 2.
Criterion not met

Please check the record "D4R" and state if its protein stability index is at or above 2.
Criterion met

Please check the record "R7W" and state if its protein stability index is at or above 2.
Criterion met

Please check the record "I14C" and state if its protein stability index is at or above 2.
Criterion met

Please check the record "P6L" and state if its protein stability index is at or above 2.
Criterion not met

Please check the record "R7E" and state if its protein stability index is at or above 2.
Criterion met

Please check the record "R7G" and state if its protein stability index is at or above 2.
Criterion met

Please check the record "V13D" and state if its protein stability index is at or above 2.
Criterion met

Please check the record "Q15I" and state if its protein stability index is at or above 2.
Criterion met

Please check the record "R7I" and state if its protein stability index is at or above 2.
Criterion met

Please check the record "Y1F" and state if its protein stability index is at or above 2.
Criterion met

Please check the record "P16D" and state if its protein stability index is at or above 2.
Criterion met

Please check the record "P6F" and state if its protein stability index is at or above 2.
Criterion not met

Please check the record "Q12W" and state if its protein stability index is at or above 2.
Criterion met

Please check the record "G2V" and state if its protein stability index is at or above 2.
Criterion not met

Please check the record "D4Y" and state if its protein stability index is at or above 2.
Criterion met

Please check the record "P6G" and state if its protein stability index is at or above 2.
Criterion met

Please check the record "A9E" and state if its protein stability index is at or above 2.
Criterion met

Please check the record "P24Q" and state if its protein stability index is at or above 2.
Criterion not met

Please check the record "A9H" and state if its protein stability index is at or above 2.
Criterion not met

Please check the record "P24R" and state if its protein stability index is at or above 2.
Criterion not met

Please check the record "A17D" and state if its protein stability index is at or above 2.
Criterion met

Please check the record "R7Y" and state if its protein stability index is at or above 2.
Criterion met

Please check the record "Y1Q" and state if its protein stability index is at or above 2.
Criterion met

Please check the record "I14S" and state if its protein stability index is at or above 2.
Criterion met

Please check the record "Y5G" and state if its protein stability index is at or above 2.
Criterion met

Please check the record "P6W" and state if its protein stability index is at or above 2.
Criterion not met

Please check the record "Q12G" and state if its protein stability index is at or above 2.
Criterion met

Please check the record "Q15F" and state if its protein stability index is at or above 2.
Criterion met

Please check the record "P24N" and state if its protein stability index is at or above 2.
Criterion met

Please check the record "H3L" and state if its protein stability index is at or above 2.
Criterion not met

Please check the record "G20W" and state if its protein stability index is at or above 2.
Criterion not met

Please check the record "D4L" and state if its protein stability index is at or above 2.
Criterion not met

Please check the record "H3V" and state if its protein stability index is at or above 2.
Criterion met

Please check the record "A17F" and state if its protein stability index is at or above 2.
Criterion met

Please check the record "I14D" and state if its protein stability index is at or above 2.
Criterion not met

Please check the record "P22N" and state if its protein stability index is at or above 2.
Criterion met

Please check the record "D4K" and state if its protein stability index is at or above 2.
Criterion met

Please check the record "A9R" and state if its protein stability index is at or above 2.
Criterion met
